- Tested on: FGR
- recorded-conditions: concentration: 1 μM, replicates: in singlicate; n = 1;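 also: KINOMEscan kinase panel screen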
# note: exactly 70% is not below, so it is n; use y for %Inh strictly under it

> print(dat)
                                   compound  class.label
1  O=C(O)C(F)(F)F.O=C(O)C(F)(F)F.O=c1[nH]ccc2nc(N[C@@H]3CCCNC3)nc(Nc3ccc(S(=O)(=O)N4CCOCC4)cc3)c12 [GSK2177277]            n
2  Nc1ncc(-c2cccnc2)c2scc(-c3ccc4c(c3)CCN4C(=O)Cc3ccccc3)c12 [GSK683281]            y
3  COc1cccc(C2=C(Nc3ccc(Cl)c(C(=O)O)c3)C(=O)NC2=O)c1 [SB-390769]            y
4  CSc1cccc2c(-c3ccncn3)c(-c3ccc(F)cc3)nn12 [GW514786]            y

---

- System: SgK110
- recorded-conditions: concentration: 1 μM, replicates: in singlicate; n = 1
measure-name: %Inh

> print(dat)
                        structure.as.smiles  recorded.result
1        Nc1ncnc2c1nc(-c1ccccc1)n2-c1ccccc1               0%
2  COc1ccc(CNC(=O)NC2CCN(c3ccnc(Nc4ccc(F)cc4)n3)CC2)cc1               0%
3  O=C(Nc1cccc(-c2nn3ncccc3c2-c2ccnc(Nc3ccccc3)n2)c1)c1c(F)cccc1F               0%

---

%Inh listing for selected compounds.
- Test system: YES
- Construct: gene YES1
- recorded-conditions: concentration: 1 μM, replicates: in singlicate; n = 1
measure-name: %Inh

> print(dat)
                                   compound  assay.system  recorded.result
1  O=C(NC1CCN(c2ccnc(Nc3ccc(F)cc3)n2)C1)c1cc2ccccc2s1 (stereo not drawn)           YES              20%
2  CN(C)S(=O)(=O)c1cc(-c2ccc3nccc(-c4cccc(S(N)(=O)=O)c4)c3c2)cnc1N           YES               1%
3  COc1cccc(NC(=O)NC2CCN(c3ccnc(Nc4cc(OC)c(OC)c(OC)c4)n3)C2)c1 (stereo not drawn)           YES               1%

---

- Tested on: MRCKB
- Construct: gene CDC42BPB
- recorded-conditions: concentration: 1 μM, replicates: in singlicate; n = 1
measure-name: %Inh (%)

> print(dat)
                                    compound  assay.system  measurement.unit  recorded.result
 1  CC(=O)Nc1nc2cnc(Nc3cc(NC(=O)c4cccc(C5(C#N)CC5)c4Cl)ccc3C)nc2s1         MRCKB                 %                0
 2  CCS(=O)(=O)c1ccc(OC)c(Nc2nccc(-c3c(-c4cccc(NC(=O)c5c(F)cccc5F)c4)nn4ncccc34)n2)c1 [GSK326180]         MRCKB                 %               11
 3  Oc1cc(Nc2ccnc3cc(I)ccc23)ccc1F [GW552771]         MRCKB                 %                0
 4  Cc1cccc(Nc2nc(N[C@H]3CCNC3)ncc2C(N)=O)c1.Cl [GSK2197149]         MRCKB                 %                0
 5  O=C(Nc1ccccc1F)NC1CCN(c2ccnc(Nc3ccc(F)cc3)n2)CC1 [GSK1379800]         MRCKB                 %                0
 6  Cc1ccc(C)c(NC(=O)NC2CCN(c3ccnc(Nc4ccc(F)cc4)n3)C2)c1 (centres unmarked) [GSK1379720]         MRCKB                 %                6
 7  Nc1ncnc2c1nc(-c1ccccc1)n2-c1ccccc1 [SKF-97293]         MRCKB                 %                0
 8  Cn1cc(-c2ccc3c(c2)CCN3C(=O)Cc2cccc(F)c2)c2c(N)ncnc21 [GSK2603358]         MRCKB                 %                0
 9  CN1CCN(Cc2cccc(-c3ccc4c(Nc5ccc(Oc6ccccc6)cc5)ccnc4c3)c2)CC1 [GW578342]         MRCKB                 %                0
10  Cc1ccc(S(=O)(=O)Nc2ccc(Nc3nccc(Nc4cccc5[nH]ncc45)n3)cc2)cc1 [GSK581271]         MRCKB                 %                0
11  Cl.Cl.NCC(NC(=O)c1cc(-c2ccccc2)c(-c2ccnc3[nH]ccc23)s1)c1ccccc1 (centres unmarked) [GSK1321561]         MRCKB                 %             90.7
12  O=C(Nc1n[nH]c2nc(-c3ccc(O)cc3)ccc12)C1CC1 [SB-710363]         MRCKB                 %                0
13  COc1cc(Nc2nccc(-c3c(-c4cccc(NC(=O)c5c(F)cccc5F)c4)nn4ncccc34)n2)cc(OC)c1OC [GSK327238]         MRCKB                 %             98.9
14  c1ccc(-c2n[nH]cc2Nc2ccnc3ccccc23)nc1 [GW694077]         MRCKB                 %                0
15  Nc1ncc(-c2ccc3nccc(-c4ccncc4)c3c2)cc1S(=O)(=O)N1CCOCC1 [GSK1627798]         MRCKB                 %                0
16  O=C(Nc1cccc(-c2nn3ccccc3c2-c2ccnc(Nc3cccc(F)c3)n2)c1)c1c(F)ccc(F)c1Cl [GSK357952]         MRCKB                 %                1
17  COc1cccc(-c2ccc3c(NC(=O)C4CC4)n[nH]c3n2)c1 [SB-710903]         MRCKB                 %                0
18  CN(C)Cc1ccc(-c2ccc3c(Nc4ccc(Oc5ccccn5)cc4)ccnc3c2)o1 [GW567148]         MRCKB                 %                0
19  COc1cc(Nc2nccc(N3CCC(NC(=O)Nc4cccc(C(C)=O)c4)C3)n2)cc(OC)c1OC (centres unmarked) [GSK1379753]         MRCKB                 %                0
20  Cc1ccc(C(=O)Nc2ccc(Nc3ccnc4cc(-c5nccs5)ccc34)cc2O)cc1.Cl [GW494702]         MRCKB                 %                0
